# MEASUREMENT PARAMETERS: human, serum
READOUT LABEL: Hepatotoxicity (moderate)

Reported Hepatotoxicity (moderate) ( CCCC(C)(COC(N)=O)COC(=O)NC(C)C (configuration not stated) ) = 0

Reported Hepatotoxicity (moderate) ( N[C@@H]1CN(c2c(F)cc3c(=O)c(C(=O)O)cn([C@@H]4C[C@@H]4F)c3c2Cl)CC12CC2 [SITAFLOXACIN ANHYDROUS] ) = 6

Reported Hepatotoxicity (moderate) ( `O=[N+]([O-])c1ccc(O)c([N+](=O)[O-])c1` ) = 0

Reported Hepatotoxicity (moderate) ( `COc1ccc(-c2noc(CC(=O)O)c2-c2ccc(OC)cc2)cc1` ) = 1

Reported Hepatotoxicity (moderate) ( CNC1=Nc2ccc(Cl)cc2C(c2ccccc2)=[N+]([O-])C1 [CHLORDIAZEPOXIDE] ) = 3

Reported Hepatotoxicity (moderate) ( CCOC(=O)OC(C)OC(=O)[C@@H]1N2C(=O)[C@@H](NC(=O)[C@H](N)c3ccccc3)[C@H]2SC1(C)C (some centres not stated) ) = 2

Reported Hepatotoxicity (moderate) ( `O=C(O)C1=C(CSc2nnnn2CS(=O)(=O)O)CS[C@@H]2[C@H](NC(=O)[C@H](O)c3ccccc3)C(=O)N12` ) = 10

Reported Hepatotoxicity (moderate) ( `CC[C@H](C)C(=O)O[C@H]1C[C@H](O)C=C2C=C[C@H](C)[C@H](CC[C@@H](O)C[C@@H](O)CC(=O)O)[C@H]21` ) = 50

Reported Hepatotoxicity (moderate) ( `Cc1ccc(C(=O)c2ccc(CC(=O)O)n2C)cc1` ) = 3

Reported Hepatotoxicity (moderate) ( CC(=O)Nc1nnc(S(N)(=O)=O)s1 [ACETAZOLAMIDE] ) = 0

Reported Hepatotoxicity (moderate) ( `Fc1ccccc1C1=NCC(=S)N(CC(F)(F)F)c2ccc(Cl)cc21` ) = 1

Reported Hepatotoxicity (moderate) ( `CCCC[C@@H]1CC(=O)[C@]2(O)O[C@@H]3[C@@H](NC)[C@@H](O)[C@@H](NC)[C@H](O)[C@H]3O[C@@H]2O1` ) = 2

Reported Hepatotoxicity (moderate) ( CCOc1ccccc1OCC1CNCCO1 (configuration not stated) ) = 2

Reported Hepatotoxicity (moderate) ( `CCN[C@@H](C)Cc1cccc(C(F)(F)F)c1` ) = 0

Reported Hepatotoxicity (moderate) ( `CC(=O)Oc1cc(C(C)C)c(OCCN(C)C)cc1C` ) = 1

Reported Hepatotoxicity (moderate) ( CC(=O)NCCCCCCNC(C)=O [HEXAMETHYLENEBISACETAMIDE] ) = 0

Reported Hepatotoxicity (moderate) ( `COc1ccc(CCN(C)CCCC2(c3ccc(OC)c(OC)c3)S(=O)(=O)CCCS2(=O)=O)cc1OC` ) = 2

* * *

# MEASUREMENT PARAMETERS: human, serum
Just a reminder that ties go to -1: only Hepatotoxicity (acute) strictly below 2 counts as 1.

I wonder whether `C[C@]12CC[C@@H]3c4ccc(O)cc4CC[C@H]3[C@@H]1CC[C@@H]2O` has Hepatotoxicity (acute) below 2. Can you tell?
1

I wonder whether `CN1CCC(=C2c3ccccc3CC(=O)c3sccc32)CC1` has Hepatotoxicity (acute) below 2. Can you tell?
1

I wonder whether `CC[C@H](C)C(=O)O[C@H]1C[C@H](O)C=C2C=C[C@H](C)[C@H](CC[C@@H](O)C[C@@H](O)CC(=O)O)[C@H]21` has Hepatotoxicity (acute) below 2. Can you tell?
-1

I wonder whether COc1cc(NC(C)CCCN)c2ncccc2c1 (centres undefined) has Hepatotoxicity (acute) below 2. Can you tell?
1

I wonder whether `Cc1c(C)c2ccc(OCCCN3CCN(Cc4ccc(Cl)cc4)CC3)cc2oc1=O` has Hepatotoxicity (acute) below 2. Can you tell?
1

I wonder whether `O=C(Nc1ccc(Cl)cc1)NS(=O)(=O)c1ccc2c(c1)CCC2` has Hepatotoxicity (acute) below 2. Can you tell?
-1

I wonder whether `CC(=O)Oc1ccccc1C(=O)O` has Hepatotoxicity (acute) below 2. Can you tell?
-1

I wonder whether `CNCCNc1ccc2c3c(nn2CCNCCO)-c2c(O)ccc(O)c2C(=O)c13` has Hepatotoxicity (acute) below 2. Can you tell?
1
